Where do these numbers come from? They come from patent US20020137929A1.

- Test system: AMBEL (Ragweed, Common)
- Measurement Notes: Preemergence herbicidal evaluation
- Assay type: in vivo, Ambrosia artemisifolia
- Experimental Setup: rate 0.1250 kg/ha; rated 4-5 weeks after treatment
Below, each entry is listed alongside its reported Preemergence herbicidal rating AMBEL.

Worked set:
• COCCOC(=O)CN1C(=O)CSC1=Nc1cc(-n2c(=O)cc(C(F)(F)F)n(C)c2=O)c(F)cc1Cl [Compound 107] = 0.0
• CCOC(=O)CN1C(=O)C(CC(=O)O)SC1=Nc1cc(-n2nc(C)n(C(F)F)c2=O)c(F)cc1Cl (centres unmarked) [Compound 112] = 0.0
• CCOC(=O)CN1C(=O)C(Cl)SC1=Nc1cc(-n2c(=O)cc(C(F)(F)F)n(C)c2=O)c(F)cc1Cl (centres unmarked) [Compound 126] = 0.0
• Cn1c(C(F)(F)F)cc(=O)n(-c2cc(N=C3SCC(=O)N3C3CCOC3=O)c(Cl)cc2F)c1=O (centres unmarked) [Compound 73] = 9.0
• C=CCN1C(=O)C(CC(=O)OC(C)C)SC1=Nc1cc(-n2c(=O)cc(C(F)(F)F)n(C)c2=O)c(F)cc1Cl (centres unmarked) [Compound 66] = 9.0

Field request: Preemergence herbicidal rating AMBEL | item: CCOC(=O)CN1C(=O)C(CC(=O)OC(C)C)SC1=Nc1cc(-n2c(=O)cc(C(F)(F)F)n(C)c2=O)c(F)cc1Cl (centres unmarked) [Compound 60] 7.0

Field request: Preemergence herbicidal rating AMBEL | item: CCOC(=O)CN1C(=O)C(CC(=O)OCc2ccccc2)OC1=Nc1cc(-n2c(=O)cc(C(F)(F)F)n(C)c2=O)c(F)cc1Cl (centres unmarked) [Compound 40] 6.0

Field request: Preemergence herbicidal rating AMBEL | item: CCOC(=O)[C@H](C)N1C(=O)CSC1=Nc1cc(-n2c(=O)cc(C(F)(F)F)n(C)c2=O)c(F)cc1Cl [Compound 76] 9.0

###

Below, each entry is listed alongside its reported Preemergence herbicidal rating ZEAMX.
- System: ZEAMX (Corn, Field)
- Measurement Notes: Preemergence herbicidal evaluation
- Format: in vivo, Zea mays
- Experimental Setup: rate 0.1250 kg/ha; rated 4-5 weeks after treatment
Give the figure only, with no unit attached.

* COC(=O)[C@H](Cc1ccc([N+](=O)[O-])cc1)N1C(=O)CSC1=Nc1cc(-n2c(=O)cc(C(F)(F)F)n(C)c2=O)c(F)cc1Cl | 0.0
* COC(=O)[C@H](Cc1ccccc1)N1C(=O)CS/C1=N/c1cc(-n2c(=O)cc(C(F)(F)F)n(C)c2=O)c(F)cc1Cl | 1.0

Field request: Preemergence herbicidal rating ZEAMX | item: CCOC(=O)COc1ccccc1CC1S/C(=N/c2cc(-n3c(=O)cc(C(F)(F)F)n(C)c3=O)c(F)cc2Cl)N(CC(=O)OCC)C1=O (stereo not drawn) 0.0

###

Below, each entry is listed alongside its reported Preemergence herbicidal rating GALAP.
- Tested on: GALAP (Galium)
- Measurement Notes: Preemergence herbicidal evaluation
- Type: in vivo, Galium aparine
- Experimental Setup: rate 0.0625 kg/ha; rated 4-5 weeks after treatment
Give the figure only, with no unit attached.

- CCOC(=O)CN1C(=O)C(CC(=O)OC(C)C)SC1=Nc1cc(-n2c(=O)cc(C(F)(F)F)n(C)c2=O)c(F)cc1Cl (stereo not shown) [Compound 60]: 0.0
- Cn1c(C(F)(F)F)cc(=O)n(-c2cc(/N=C3/SCC(=O)N3CC(=O)O)c(Cl)cc2F)c1=O [Compound 52]: 0.0
- Cn1c(C(F)(F)F)cc(=O)n(-c2cc(N=C3SCC(=O)N3[C@H](Cc3ccccc3)C(=O)O)c(Cl)cc2F)c1=O [Compound 69]: 0.0
- Cn1c(C(F)(F)F)cc(=O)n(-c2cc(N=C3SCC(=O)N3[C@@H](Cc3ccccc3)C(=O)O)c(Cl)cc2F)c1=O [Compound 53]: 0.0
- CCOC(=O)CN1C(=O)C(CC(=O)O)SC1=Nc1cc(-n2nc(C)n(C(F)F)c2=O)c(F)cc1Cl (stereo not shown) [Compound 112]: 0.0

Field request: Preemergence herbicidal rating GALAP | item: Cn1c(C(F)(F)F)cc(=O)n(-c2cc(N=C3SCC(=O)N3Cc3ccco3)c(Cl)cc2F)c1=O [Compound 122] 3.0

Field request: Preemergence herbicidal rating GALAP | item: C=CCN1C(=O)C(CC(=O)O)SC1=Nc1cc(-n2c(=O)cc(C(F)(F)F)n(C)c2=O)c(F)cc1Cl (stereo not shown) [Compound 62] 0.0

Field request: Preemergence herbicidal rating GALAP | item: COC(=O)[C@H](Cc1ccccc1)N1C(=O)CS/C1=N/c1cc(-n2c(=O)cc(C(F)(F)F)n(C)c2=O)c(F)cc1Cl [Compound 72] 0.0

Field request: Preemergence herbicidal rating GALAP | item: C#CCOC(=O)CC1SC(=Nc2cc(-n3c(=O)cc(C(F)(F)F)n(C)c3=O)c(F)cc2Cl)N(CC(=O)OCC)C1=O (stereo not shown) [Compound 59] 6.0

Field request: Preemergence herbicidal rating GALAP | item: COC(=O)[C@H](Cc1ccc([N+](=O)[O-])cc1)N1C(=O)CSC1=Nc1cc(-n2c(=O)cc(C(F)(F)F)n(C)c2=O)c(F)cc1Cl [Compound 78] 0.0
